target: Neurogenic locus notch homolog protein 3 (Homo sapiens); assay: NOTCH3 binders on small-molecule microarray, primary screen, biochemical, 635/667 nm fluorescence (AID 1096); conditions: NOTCH3 binding, 635 nm fluorescence, higher = more signal
Parameter: composite z-score. Scope: all listed entries.
measure: composite z-score

INSERT INTO measurements (compound, measure, reported_value) VALUES
  ('NCCCCCNC(=O)[C@@H]1C[C@@H]2C(=O)NCC(=O)N2[C@@H]1c1ccc(O)cc1', 'composite z-score', 0.892),
  ('CCCCC(O)C1C=CC2C(=O)N(c3ccccc3)C(=O)C2N1Nc1ccccc1F (configuration not stated)', 'composite z-score', 0.818),
  ('C=CCC(OC(C)=O)[C@@H]1[C@@H](N(Cc2cccc3ccccc23)C(=O)c2ccc(-c3ccccc3)cc2)c2cc(OCCCO)ccc2N1C(=O)Cc1ccc(OC)cc1 (some centres not stated)', 'composite z-score', 0.0343),
  ('CCCCN1CC=CC23O[C@@H]4C=CCOC(=O)[C@@H]4[C@H]2C(=O)N(CCCCCO)[C@@H]3C1=O (some centres not stated)', 'composite z-score', -0.445),
  ('COc1ccc(C(=O)Nc2ccc(CN3C(=O)[C@@]4(O[C@@H](CC(=O)N5CCC[C@H]5CO)[C@H]([Si](C)(C)c5ccc(OC)cc5)[C@H]4C)c4ccccc43)cc2)cc1', 'composite z-score', 1.09),
  ('COC(=O)[C@@]1(Cc2ccccc2)[C@H]2c3cc(C(=O)N4CCCC4)n(Cc4cccc5ccccc45)c3C[C@H]2CN1C(=O)c1ccccc1', 'composite z-score', 0.943),
  ('C=CCC(OC(C)=O)[C@@H]1[C@@H](N(Cc2ccc(-c3ccccc3)cc2)C(=O)Cc2ccc(F)cc2)c2cc(OCCCO)ccc2N1C(=O)c1ccc(-c2ccccc2)cc1 (some centres not stated)', 'composite z-score', -0.239);
